Recorded decrease of HDAC4 enzyme activity/inhibition rate, one value per entry.
System: HDAC4
Experiment: HDAC4 enzyme activity in nuclear extracts of human tumor xenografts of treated mice
Conditions: MCF7 tumor grown in vivo; second value of the pair HDAC3 and HDAC4; SAHA 25 mg/kg

// known answers, use as guide
CCNC(=O)CC[C@@H](NC(=O)c1cc2cc(Br)ccc2oc1=O)C(=O)OCC | 63%*(MCF7)
CCNC(=O)CC[C@@H](NC(=O)c1cc2cc(Br)cc(Br)c2oc1=O)C(=O)OCC | 66%*(MCF7)
CCNC(=O)CCC(NC(=O)c1cc2cc([N+](=O)[O-])ccc2oc1=O)C(=O)OCC (stereo in doubt) | 69%*(MCF7)
CCNC(=O)CC[C@@H](NC(=O)c1cc2cc(Cl)ccc2oc1=O)C(=O)OCC | 63%*(MCF7)
CCNC(=O)CCC(NC(=O)c1cc2cc(F)ccc2oc1=O)C(=O)OCC (stereo in doubt) | 67%*(MCF7)

With those in mind, consider the next compound.
Can you look up the measured decrease of HDAC4 enzyme activity/inhibition rate of "CCNC(=O)CC[C@@H](NC(=O)c1cc2cc(Cl)cc(Cl)c2oc1=O)C(=O)OCC" for me?
68%*(MCF7)

The reported measurements were obtained from patent US9518038B2.
